target-under-test: T1, recombinant human CD123-Fc (human, UniProt P26951 19-305)
T1 construct: not shown: Fc part of CD123-Fc
T1 sequence: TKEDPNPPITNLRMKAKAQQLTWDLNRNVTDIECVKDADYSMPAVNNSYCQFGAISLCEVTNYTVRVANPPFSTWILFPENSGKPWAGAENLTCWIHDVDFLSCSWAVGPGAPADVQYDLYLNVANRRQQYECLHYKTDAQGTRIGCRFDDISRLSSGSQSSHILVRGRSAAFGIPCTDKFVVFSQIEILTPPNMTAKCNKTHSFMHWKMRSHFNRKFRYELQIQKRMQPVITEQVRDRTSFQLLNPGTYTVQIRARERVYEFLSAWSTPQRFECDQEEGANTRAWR
assay-method-text: phage ELISA, captured CD123-Fc
experimental-readout: ELISA_avg (ratio A450 target/IgG1-Fc)
Give a bare numeral; the unit ratio A450 target/IgG1-Fc is implied.

Consider the worked cases shown below.
SEQ ID NO: 559 (designed binder, D domain, on phage) MGSWTEFTQRLEAIVDRLFALGGSEAELAEFENSIADFEWDLQWYKGKGNPEVEALNREAVAIDNELWAYRHN
3.9
SEQ ID NO: 476 (designed binder, D domain, on phage) MGSWSWFKQDLADIKIQLEALGGSEAELAWFEWDIAEFEFELQDYKGKGNPEVEALRKEAAAIRDELQAYRHN
4

Pending binder:
Quick check: ELISA_avg of SEQ ID NO: 525 (designed binder, D domain, on phage) MGSWYQFKDDLAHIKHLLEALGGSEAELAVFEYIIADFESFLQIYKGKGNPEVEALRKEAAAIRDELQAYRHN ?
4
